Cited source for all entries: patent US20070178531A1

Experimental Target: T1, Mouse Id3: Histidine (mouse, UniProt P41133 1-119)
T1 construct: Fusion protein made in E. coli from vector pGW07; also called m-Id3: His; Mouse Id3 (coated wells); not shown: His tag
T1 sequence: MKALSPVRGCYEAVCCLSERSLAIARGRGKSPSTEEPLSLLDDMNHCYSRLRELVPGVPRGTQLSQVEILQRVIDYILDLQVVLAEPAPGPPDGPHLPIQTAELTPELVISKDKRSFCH
Test Method Notes: ELISA, Ab 0.050 µg/ml
Property Measured: A450 (A450)
The answer is to be given in A450; state only the numeric part.

Req: If you can, please state the reported A450 value of rabbit monoclonal anti-mouse/human Id3, clone #BCH-4/#16-1 (antibody, V domains shown, Rabbit IgG from a rabbit hybridoma; also called m/h Id3 MoAb 16-1) VH: QSVEESGGRLVTPGTPLTLTCTASGFSLSSYYIHWVRQAPGKALEWIGYISDGGTTYYASWAKGRFTISKTSSTTVDLKMTSLTTEDTATYFCARQGFNIWGPGTLVTVSL VL: AVLTQTPSPVSAAVGGTVTISCQSSQSVYNNNWLSWFQQKSGQPPKLLIYETSKLESGVPSRFKGSGSGTQFTLTIIDVQCDDAATYYCLGGYWTTSDNNIFGGGTEVVVK .
Resp: 1.57
